This collection of values is drawn from patent US20230014907A1.

assayed-system: G1 APOL1 (Homo sapiens, UniProt O14791, I384M/S342G)
Construct: expressed in transfected cells
Sequence (O14791 28-398 S342G/I384M): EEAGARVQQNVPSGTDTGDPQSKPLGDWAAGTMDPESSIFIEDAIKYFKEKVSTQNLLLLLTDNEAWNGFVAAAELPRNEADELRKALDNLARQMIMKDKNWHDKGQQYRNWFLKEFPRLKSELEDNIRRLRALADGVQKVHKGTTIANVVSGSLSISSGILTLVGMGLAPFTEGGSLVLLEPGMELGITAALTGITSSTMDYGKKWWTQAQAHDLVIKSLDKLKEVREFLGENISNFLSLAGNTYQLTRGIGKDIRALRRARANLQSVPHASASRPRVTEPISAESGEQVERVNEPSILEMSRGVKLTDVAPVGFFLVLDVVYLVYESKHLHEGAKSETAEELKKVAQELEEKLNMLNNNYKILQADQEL
experiment-notes: Acute APOL1 Thallium Assay with Inducible Stable Clones of HEK 293 Cells
Format: cell-based
assay-conditions: HEK 293 inducible stable clones, G1 APOL1; read-out: Thallium Assay (IC50)
pIC50: −log10 of the molar value.
recorded-endpoint: pIC50

CC(=O)NCCc1c(-c2ccc(F)cc2)[nH]c2c(F)cc(F)cc12 [Compound 418] :: < 6.00
O=C(CCc1c(-c2ccc(F)cc2)[nH]c2c(F)cc(F)cc12)Nc1nnco1 [Compound 151] :: < 6.00
Cc1cc(F)c2[nH]c(-c3ccc(F)cc3)c(CCC(=O)N[C@@H](CO)C(F)(F)F)c2c1 [Compound 214] :: > 6.60
Cc1ccc(C(=O)NCCc2c(-c3ccc(F)cc3)[nH]c3c(F)cc(F)cc23)o1 [Compound 393] :: < 6.00
Cc1cc(F)c2[nH]c(-c3ccc(F)cc3)c(CCC(=O)NC(CO)CF)c2c1 (centres unmarked) [Compound 221] :: < 6.00

Input line: Give its pIC50 value. Item: N#Cc1ccc(-c2[nH]c3c(F)cc(F)cc3c2CCC(=O)N[C@@H](CO)C(F)(F)F)cc1 [Compound 234]
Output line: > 6.60

Input line: Cool, now O=C(NCCc1c(-c2ccc(F)cc2)[nH]c2c(F)cc(F)cc12)c1ccc(O)nc1 [Compound 334]
Output line: < 6.00

Input line: Cool, now O=C(CCc1c(-c2ccc(F)cc2)[nH]c2c(F)cc(F)cc12)Nc1ccno1 [Compound 184]
Output line: < 6.00

---

assayed-system: G1 APOL1 (Homo sapiens, UniProt O14791, I384M/S342G)
Construct: expressed in transfected cells
experiment-notes: Acute APOL1 Thallium Assay with Inducible Stable Clones of HEK 293 Cells
Assay type: cell-based
assay-conditions: HEK 293 inducible stable clones, G1 APOL1; read-out: Thallium Assay (IC50)
Structures can show the parent of a compound that is named as a salt.
recorded-endpoint: IC50

C[C@H](NC(=O)OC(C)(C)C)C(=O)NCCc1c(-c2ccc(F)cc2)[nH]c2c(F)cc(F)cc12 :: > 1000 nM

Input line: Record `CC(C)(C)[C@H](CO)NC(=O)NCCc1c(-c2ccc(F)cc2)[nH]c2c(F)cc(F)cc12` : what is its IC50 with G1 APOL1 (Homo sapiens, UniProt O14791, I384M/S342G)?
Output line: > 1000 nM

Input line: Cool, now O=C(NC(CO)C1CC1)OCCc1c(-c2ccc(F)cc2)[nH]c2c(F)cc(F)cc12 (stereo not shown)
Output line: < 250 nM

Input line: Cool, now `O=C(CCCc1c(-c2ccc(F)cc2)[nH]c2c(F)cc(F)cc12)N[C@H]1C[C@@H](CO)NC1=O`
Output line: > 1000 nM

Input line: Cool, now `NC(=O)[C@H](CO)NC(=O)CCc1c(-c2ccc(F)cc2)[nH]c2c(F)cc(Cl)cc12`
Output line: > 1000 nM

Input line: Cool, now O=C(NCCc1c(-c2ccc(F)cc2)[nH]c2c(F)cc(F)cc12)NCC(O)C(F)F (stereo not shown)
Output line: > 1000 nM

Input line: Cool, now `C[C@@H](CO)NC(=O)CCc1c(-c2ccc(F)cc2)[nH]c2c(F)cc(F)cc12`
Output line: 250 to 1000 nM

Input line: Cool, now `CC(C)(C)OC(=O)N[C@H](CO)C(=O)NCCc1c(-c2ccc(F)cc2)[nH]c2c(F)cc(F)cc12`
Output line: > 1000 nM

Input line: Cool, now `CC(C)(O)CNC(=O)NCCc1c(-c2ccc(F)cc2)[nH]c2c(F)cc(F)cc12`
Output line: > 1000 nM

Input line: Cool, now `O=C(CCc1c(-c2ccccc2)[nH]c2ccc(F)cc12)NCCO`
Output line: > 1000 nM

Input line: Cool, now CC(CCO)NC(=O)CCc1c(-c2ccc(F)cc2)[nH]c2c(F)cc(Cl)cc12 (racemic)
Output line: 250 to 1000 nM

Input line: Cool, now `C[C@H](NC(=O)NCCc1c(-c2ccc(F)cc2)[nH]c2c(F)cc(F)cc12)C(=O)O`
Output line: > 1000 nM

Input line: Cool, now O=C(CCc1c(-c2ccc(F)cc2)[nH]c2ccc(F)cc12)NC1CCCNC1=O (stereo not shown)
Output line: > 1000 nM

Input line: Cool, now `O=C(Cn1cncn1)NCCc1c(-c2ccc(F)cc2)[nH]c2c(F)cc(F)cc12`
Output line: > 1000 nM

Input line: Cool, now `Cc1cc(NC(=O)CCc2c(-c3ccc(F)cc3)[nH]c3c(F)cc(F)cc23)no1`
Output line: > 1000 nM

Input line: Cool, now O=C(CCc1c(-c2ccc(F)cc2)[nH]c2ccc(F)cc12)N[C@H]1CNC[C@@H]1O [Compound 2, hydrochloride]
Output line: > 1000 nM
